test system: bone marrow stem cells of the granulocytic/monocytic series; assay: Bone marrow toxicity in vitro (CFU-GM assay); conditions: in words; up to the highest tested concentration of 100 μg/ml
Structures can show the parent of a compound that is named as a salt.
metric: toxicity on bone marrow stem cells of the granulocytic/monocytic series

compound="CCCCCCCCCCCCSCC(COP(=O)(O)CC(=O)O)OCCCCCCCCCC (racemic) [DMDOP-PAA, acetic acid di-sodium salt]" test_target="bone marrow stem cells of the granulocytic/monocytic series" value="no toxicity"
compound="CCCCCCCCCCCCSCC(COP(=O)(O)C(=O)O)OCCCCCCCCCC (racemic) [DMDOP-PFA, di-sodium salt]" test_target="bone marrow stem cells of the granulocytic/monocytic series" value="no toxicity"

* * *

tested on: bone marrow stem cells of the granulocytic/monocytic series; experiment: Bone marrow toxicity in vitro (CFU-GM assay); conditions: Mus musculus, CFU-GM
Where a name gives a salt, the structure may show the parent alone.
IC50 listing for selected compounds.
metric: IC50 (µg/mL)

compound=COc1cccc2c1C(=O)c1c(O)c3c(c(O)c1C2=O)C[C@@](O)(C(=O)CO)C[C@@H]3O[C@H]1C[C@H](N)[C@H](O)[C@H](C)O1 test_target="bone marrow stem cells of the granulocytic/monocytic series" bound_type== value=0.046
compound="CCCCCCCCCCCCSCC(COP(=O)(O)CC(=O)O)OCCCCCCCCCC (racemic) [DMDOP-PAA, acetic acid di-sodium salt]" test_target="bone marrow stem cells of the granulocytic/monocytic series" bound_type=> value=100
compound=O=C(O)P(=O)(O)O test_target="bone marrow stem cells of the granulocytic/monocytic series" bound_type=> value=100
compound="CCCCCCCCCCCCCCCCCCOCC(O)COP(=O)(O)C(=O)O (stereo not shown)" test_target="bone marrow stem cells of the granulocytic/monocytic series" bound_type== value=94.5
compound="CCCCCCCCCCCCCCCCCCOCC(O)COP(=O)(O)C(=O)OCC (stereo not shown)" test_target="bone marrow stem cells of the granulocytic/monocytic series" bound_type== value=59.4
compound=O=C(O)CP(=O)(O)O test_target="bone marrow stem cells of the granulocytic/monocytic series" bound_type== value=62.9
compound="CCCCCCCCCCCCSCC(COP(=O)(O)C(=O)O)OCCCCCCCCCC (racemic) [DMDOP-PFA, di-sodium salt]" test_target="bone marrow stem cells of the granulocytic/monocytic series" bound_type=> value=100
